Data origin, for the record: PubChem BioAssay AID1211

# Tgt: Estrogen receptor (Homo sapiens) (UniProt P03372)
# Sequence (P03372 whole entry, looked up): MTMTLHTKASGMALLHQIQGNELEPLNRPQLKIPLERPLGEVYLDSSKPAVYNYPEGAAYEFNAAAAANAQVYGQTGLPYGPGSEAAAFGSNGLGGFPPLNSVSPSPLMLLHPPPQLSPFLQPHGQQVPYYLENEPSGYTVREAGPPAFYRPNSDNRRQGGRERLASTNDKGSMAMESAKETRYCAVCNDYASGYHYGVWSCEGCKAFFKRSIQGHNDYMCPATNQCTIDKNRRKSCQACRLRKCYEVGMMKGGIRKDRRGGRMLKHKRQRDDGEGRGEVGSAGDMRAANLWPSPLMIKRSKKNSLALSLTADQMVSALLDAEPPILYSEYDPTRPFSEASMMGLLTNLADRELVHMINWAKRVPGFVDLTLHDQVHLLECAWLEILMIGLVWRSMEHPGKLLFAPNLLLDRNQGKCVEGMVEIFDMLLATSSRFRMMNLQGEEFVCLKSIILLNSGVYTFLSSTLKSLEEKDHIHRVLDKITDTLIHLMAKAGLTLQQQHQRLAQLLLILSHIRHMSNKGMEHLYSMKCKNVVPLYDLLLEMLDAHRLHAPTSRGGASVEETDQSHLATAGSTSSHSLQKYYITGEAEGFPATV
# Experimental details: ERalpha ligand binders by competition, primary screen, cell-based, Cos7 ERalpha-GFP, flow cytometry (AID 1211)
# Test settings: fluorescent ligand competition, binding inhibition, at 0.1 µM, stronger effect = higher value
Class assignment keyed on inhibition of ligand binding, ranges lower range (below 20%), middle range (20% to below 40%), upper range (40% or more)

Bin this entry: CC(=O)Nc1ccc(OC(=O)CC2SC(=O)NC2=O)cc1 (configuration not stated)
upper range

Bin this entry: `Cc1ccc2[nH]c(=O)c(-c3nc4ccccn4c3NCc3ccco3)cc2c1`
lower range

Bin this entry: `O=C(Nc1ccc2oc(-c3ccc4ccccc4c3)nc2c1)c1cccs1`
upper range

Bin this entry: `COc1ccc(-c2nnc(-c3cc4c(ccc5ccccc54)oc3=O)o2)cc1`
middle range

Bin this entry: `COc1ccccc1/C=c1\sc2nc(-c3ccco3)nn2c1=O`
middle range

Bin this entry: `Cc1nc2ccc(C(=O)O)cc2[nH]1`
upper range

Bin this entry: O=C1NCCCC2c3cc(O)c4ccccc4c3OC12N1CCCCC1 (configuration not stated)
middle range

Bin this entry: CCc1ccc2[nH]c(=O)c(C3C(C#N)=C(N)Oc4c3ccc3cccnc43)cc2c1 (configuration not stated)
middle range

Bin this entry: `O=C(Cc1ccc(S(=O)(=O)N2CCOCC2)s1)Nc1nc2c(s1)CCCC2`
middle range

Bin this entry: O=C(Nc1ccc(O)cc1)C1CC=CCC1 (configuration not stated)
lower range

Bin this entry: COc1ccc(C2CC(c3cccs3)=NN2c2ccc(C=O)cc2)cc1 (configuration not stated)
middle range

Bin this entry: `CCn1c(SCC(=O)c2ccc(O)c(O)c2)nnc1-c1ccccc1OC`
lower range

Bin this entry: COc1cc(C2CC(=O)c3c(ccc4ccccc34)N2)ccc1O (configuration not stated)
lower range

Bin this entry: CCOc1cc(C2CC(=O)c3c(ccc4ccccc34)N2)ccc1O (configuration not stated)
middle range

Bin this entry: `Oc1ccc(-c2csc(-c3c[nH]c4ccccc34)n2)c(O)c1`
upper range

Bin this entry: COc1ccc(C2Nc3ccccc3C(=O)N2c2ccccc2)cc1COc1ccccn1 (configuration not stated)
upper range

Bin this entry: CCC1(C)NC(=O)N(CC(=O)Nc2sc3c(c2C(N)=O)CCC3)C1=O (configuration not stated)
lower range

Bin this entry: `NC(=S)n1[nH]c(-c2ccc([N+](=O)[O-])cc2)c(N=Nc2ccc(O)cc2)c1=O`
lower range

Bin this entry: `C=CCn1c(SCC(=O)NC(=O)NCc2ccco2)nc2sc(CC)cc2c1=O`
lower range
